Assay: Compound stability in rat liver microsomes
Format: in vitro ADME
Conditions: pH 7.4; rat liver microsomes 0.5 mg protein/mL, compound 5 μM, NADPH 1.0 mM, 37° C.
measured_property: half-life at 5 μM (min)
Report only the number, with the unit min understood.

compound_string: CC[C@@H](Nc1ncnc(N)c1-c1nc(C)no1)c1nc2cccc(Cl)c2c(=O)n1C1CC1
half-life at 5 μM (min): 19.7

compound_string: CC[C@H](Nc1ncnc(N)c1-c1noc(C)n1)c1nc2cccc(F)c2c(=O)n1C1CC1
half-life at 5 μM (min): 19.7

compound_string: CC[C@H](Nc1ncnc(N)c1-c1ccccn1)c1nc2cccc(Cl)c2c(=O)n1C1CC1
half-life at 5 μM (min): 62.2

compound_string: CC[C@H](Nc1ncnc(N)c1-c1ncc(C)o1)c1nc2cccc(C)c2c(=O)n1-c1ccccc1C
half-life at 5 μM (min): 5.12

// moving on: another record for half-life at 5 μM
Just so you know, measured half-life at 5 μM for Cc1nc(-c2c(N)ncnc2N[C@@H](C)c2nc3cccc(Cl)c3c(=O)n2C2CC2)no1 came out at 8.68

* * *

CLint scaled at 5 μM listing for selected compounds.
Test: Compound stability in rat liver microsomes
Format: in vitro ADME
Conditions: pH 7.4; rat liver microsomes; in vivo CLint extrapolated
Respond with a number, then the unit of measure.

Take a look at these entries with their results.
compound_string: CC[C@H](Nc1ncnc(N)c1-c1ncn(C)n1)c1nc2cccc(C)c2c(=O)n1-c1ccccc1C
CLint scaled at 5 μM: 294 mL/min/kg

compound_string: CC(C)c1nc(-c2c(N)ncnc2N[C@@H](C)c2nc3cccc(Cl)c3c(=O)n2C2CC2)no1
CLint scaled at 5 μM: 739 mL/min/kg

compound_string: CC[C@H](Nc1ncnc(N)c1-c1ncc(C)o1)c1nc2cccc(Cl)c2c(=O)n1C1CC1
CLint scaled at 5 μM: 237 mL/min/kg

Kindly consider the entry below.
Reported CLint scaled at 5 μM of CC[C@H](Nc1ncnc(N)c1-c1noc(C)n1)c1nc2cccc(Cl)c2c(=O)n1C1CC1 : 80.2 mL/min/kg

* * *

Measured Vd, listed per entry.
Assay: Pharmacokinetics after intravenous and oral administration in rats
Format: in vivo, rat
Conditions: rat, plasma, iv dosing, dose 0.5 mg/kg, read-out: Vss
Report the value in L/kg with no unit label.

compound_string: CC[C@H](Nc1ncnc(N)c1-c1ncnn1C)c1nc2cccc(Cl)c2c(=O)n1-c1ccccc1
unit_symbol: L/kg
Vd: 0.3
//
compound_string: CC[C@H](Nc1ncnc(N)c1-c1nnc(C)o1)c1nc2cccc(Cl)c2c(=O)n1-c1ccccc1
unit_symbol: L/kg
Vd: 3.68
//
compound_string: CC[C@H](Nc1ncnc(N)c1-c1nnc(C)o1)c1nc2cccc(Cl)c2c(=O)n1-c1ccccc1C
unit_symbol: L/kg
Vd: 3.46

// Vd value for CC[C@H](Nc1ncnc(N)c1-c1ccccn1)c1nc2cccc(Cl)c2c(=O)n1C1CC1 : 0.59

* * *

Experiment: Pharmacokinetics after intravenous and oral administration in rats
Assay type: in vivo, rat
Details: iv dosing, dose 1 mg/kg
Each record here notes measured clearance (CL).
State the answer as a number, implicitly in mL/min/kg.

compound: CC[C@H](Nc1ncnc(N)c1-c1ccn(C)n1)c1nc2cccc(Cl)c2c(=O)n1C1CC1 [Ex. 51]
unit_symbol: mL/min/kg
measurement: 27.3

compound: CC[C@H](Nc1ncnc(N)c1-c1nnc(C)o1)c1nc2cccc(C)c2c(=O)n1C1CC1 [Ex. 20]
unit_symbol: mL/min/kg
measurement: 77.3

compound: CC[C@@H](Nc1ncnc(N)c1-c1ccon1)c1nc2cccc(Cl)c2c(=O)n1C1CC1 [Ex. 49]
unit_symbol: mL/min/kg
measurement: 85.3

Now let's try a different one.
The value of clearance (CL) measured for the compound CC[C@H](Nc1ncnc(N)c1-c1nc(C)no1)c1nc2cccc(Cl)c2c(=O)n1C1CC1 [Ex. 4] turned out to be 21.5

* * *

# bioavailability per record follows
Test: Pharmacokinetics after intravenous and oral administration in rats
Assay type: in vivo, rat
Conditions: rat, plasma, iv dose 1 mg/kg, oral dose generally 5 or 10 mg/kg
Write the answer as a number in %, unit excluded.

Previously resolved entries follow.
compound: CC[C@H](Nc1ncnc(N)c1-c1nnc(C)o1)c1nc2cccc(Cl)c2c(=O)n1C1CC1 [Ex. 2]
unit_symbol: %
bioavailability: 63.9
--
compound: CC[C@H](Nc1ncnc(N)c1-c1ncc(C)o1)c1nc2cccc(Cl)c2c(=O)n1C1CC1 [Ex. 7]
unit_symbol: %
bioavailability: 45.7
--
compound: CC(C)c1noc(-c2c(N)ncnc2N[C@@H](C)c2nc3cccc(Cl)c3c(=O)n2C2CC2)n1 [Ex. 57]
unit_symbol: %
bioavailability: 12.1
--
compound: CC[C@H](Nc1ncnc(N)c1-c1ncn(C)n1)c1nc2cccc(Cl)c2c(=O)n1-c1ccc(F)cc1 [Ex. 50]
unit_symbol: %
bioavailability: 28.3
--
compound: CC[C@H](Nc1ncnc(N)c1-c1nnc(C)o1)c1nc2cccc(C)c2c(=O)n1C1CC1 [Ex. 20]
unit_symbol: %
bioavailability: 79
--
compound: CC[C@H](Nc1ncnc(N)c1-c1ncn(C)n1)c1nc2cccc(C)c2c(=O)n1C1CC1 [Ex. 18]
unit_symbol: %
bioavailability: 60.6
--
compound: CC[C@H](Nc1ncnc(N)c1-c1nnn(C)n1)c1nc2cccc(F)c2c(=O)n1-c1ccccc1 [Ex. 43]
unit_symbol: %
bioavailability: 90

We now examine a further compound.
bioavailability for CC[C@H](Nc1ncnc(N)c1-c1nc(C)no1)c1nc2cccc(C)c2c(=O)n1-c1ccccc1 [Ex. 37] is 24.6

* * *

Target: PI3K (p110α/p85α) (h) (Homo sapiens (Human))
Sequence (P42336 whole entry): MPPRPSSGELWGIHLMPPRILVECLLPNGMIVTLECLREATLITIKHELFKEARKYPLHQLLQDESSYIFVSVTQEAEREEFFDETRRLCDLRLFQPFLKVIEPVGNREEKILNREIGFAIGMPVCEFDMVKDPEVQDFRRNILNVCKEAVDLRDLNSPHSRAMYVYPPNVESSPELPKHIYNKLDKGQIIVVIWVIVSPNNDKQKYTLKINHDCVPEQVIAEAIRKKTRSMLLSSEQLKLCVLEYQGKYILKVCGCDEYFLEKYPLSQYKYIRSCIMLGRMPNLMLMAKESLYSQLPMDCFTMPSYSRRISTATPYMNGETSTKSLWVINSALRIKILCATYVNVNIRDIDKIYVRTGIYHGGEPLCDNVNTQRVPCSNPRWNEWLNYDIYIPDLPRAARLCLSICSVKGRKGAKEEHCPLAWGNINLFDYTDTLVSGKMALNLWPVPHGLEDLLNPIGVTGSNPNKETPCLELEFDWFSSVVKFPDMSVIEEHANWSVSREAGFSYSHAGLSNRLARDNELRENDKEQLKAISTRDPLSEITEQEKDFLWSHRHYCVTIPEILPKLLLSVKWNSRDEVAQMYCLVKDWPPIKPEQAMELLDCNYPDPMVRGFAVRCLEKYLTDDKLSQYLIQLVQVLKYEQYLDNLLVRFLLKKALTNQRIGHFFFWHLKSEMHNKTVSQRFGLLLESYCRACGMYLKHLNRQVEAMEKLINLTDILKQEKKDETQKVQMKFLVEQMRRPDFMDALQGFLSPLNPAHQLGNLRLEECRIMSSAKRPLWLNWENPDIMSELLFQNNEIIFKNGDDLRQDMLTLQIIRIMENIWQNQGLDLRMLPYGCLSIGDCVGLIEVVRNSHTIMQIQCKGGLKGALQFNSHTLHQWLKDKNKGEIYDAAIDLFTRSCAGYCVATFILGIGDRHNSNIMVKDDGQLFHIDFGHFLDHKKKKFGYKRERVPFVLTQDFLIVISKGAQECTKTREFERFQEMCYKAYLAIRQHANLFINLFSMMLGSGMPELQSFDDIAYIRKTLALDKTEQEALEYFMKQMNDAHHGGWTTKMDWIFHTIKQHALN
Sequence (P27986 whole entry partner): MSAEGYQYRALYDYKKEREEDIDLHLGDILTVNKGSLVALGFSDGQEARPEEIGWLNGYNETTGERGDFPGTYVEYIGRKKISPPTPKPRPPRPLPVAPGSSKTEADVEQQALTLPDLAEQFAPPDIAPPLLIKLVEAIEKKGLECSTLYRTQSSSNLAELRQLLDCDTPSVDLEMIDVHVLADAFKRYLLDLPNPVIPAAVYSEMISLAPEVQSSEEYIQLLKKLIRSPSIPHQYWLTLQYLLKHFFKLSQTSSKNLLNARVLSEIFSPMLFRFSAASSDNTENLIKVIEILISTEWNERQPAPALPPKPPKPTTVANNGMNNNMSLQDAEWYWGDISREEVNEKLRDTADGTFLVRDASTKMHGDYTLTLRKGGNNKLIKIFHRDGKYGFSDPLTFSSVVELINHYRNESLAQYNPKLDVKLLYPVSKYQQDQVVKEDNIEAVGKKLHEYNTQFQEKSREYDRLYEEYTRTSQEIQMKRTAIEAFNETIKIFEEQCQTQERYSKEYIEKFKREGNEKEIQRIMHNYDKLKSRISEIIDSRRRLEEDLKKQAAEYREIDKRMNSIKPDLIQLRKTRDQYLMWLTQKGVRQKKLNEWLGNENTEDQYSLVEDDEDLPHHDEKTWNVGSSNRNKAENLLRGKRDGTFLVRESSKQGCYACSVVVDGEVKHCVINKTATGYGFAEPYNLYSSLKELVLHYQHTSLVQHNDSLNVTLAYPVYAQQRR
Test: PI3K (p110α/p85α) (h) non-radioactive HTRF kinase assay
Listed here: items and their measured IC50.
Your answer is read as nM, so omit the unit and give the number.

compound: CC[C@H](Nc1ncnc(N)c1-c1nc(C)no1)c1nc2cccc(Cl)c2c(=O)n1-c1ccccc1 [Ex. 3]
IC50 [nM]: 442
//
compound: Cc1noc(-c2c(N)ncnc2N[C@@H](C)c2nc3cccc(Cl)c3c(=O)n2-c2ccccc2)n1 [Ex. 65]
IC50 [nM]: 1010
//
compound: CC[C@H](Nc1ncnc(N)c1-c1nc(C)no1)c1nc2cccc(Cl)c2c(=O)n1C1CC1 [Ex. 4]
IC50 [nM]: 1480
//
compound: Cc1noc(-c2c(N)ncnc2N[C@@H](C)c2nc3cccc(Cl)c3c(=O)n2C2CC2)n1 [Ex. 41]
IC50 [nM]: 1200

// next item, IC50 requested
Lab note: CC[C@H](Nc1ncnc(N)c1-c1nc(C)no1)c1nc2cccc(F)c2c(=O)n1-c1ccccc1 [Ex. 39] gave IC50 of 2750

* * *

Target: PI3K (p110δ/p85α) (h) (Homo sapiens (Human), UniProt O00329)
Sequence (O00329 whole entry, one chain of several): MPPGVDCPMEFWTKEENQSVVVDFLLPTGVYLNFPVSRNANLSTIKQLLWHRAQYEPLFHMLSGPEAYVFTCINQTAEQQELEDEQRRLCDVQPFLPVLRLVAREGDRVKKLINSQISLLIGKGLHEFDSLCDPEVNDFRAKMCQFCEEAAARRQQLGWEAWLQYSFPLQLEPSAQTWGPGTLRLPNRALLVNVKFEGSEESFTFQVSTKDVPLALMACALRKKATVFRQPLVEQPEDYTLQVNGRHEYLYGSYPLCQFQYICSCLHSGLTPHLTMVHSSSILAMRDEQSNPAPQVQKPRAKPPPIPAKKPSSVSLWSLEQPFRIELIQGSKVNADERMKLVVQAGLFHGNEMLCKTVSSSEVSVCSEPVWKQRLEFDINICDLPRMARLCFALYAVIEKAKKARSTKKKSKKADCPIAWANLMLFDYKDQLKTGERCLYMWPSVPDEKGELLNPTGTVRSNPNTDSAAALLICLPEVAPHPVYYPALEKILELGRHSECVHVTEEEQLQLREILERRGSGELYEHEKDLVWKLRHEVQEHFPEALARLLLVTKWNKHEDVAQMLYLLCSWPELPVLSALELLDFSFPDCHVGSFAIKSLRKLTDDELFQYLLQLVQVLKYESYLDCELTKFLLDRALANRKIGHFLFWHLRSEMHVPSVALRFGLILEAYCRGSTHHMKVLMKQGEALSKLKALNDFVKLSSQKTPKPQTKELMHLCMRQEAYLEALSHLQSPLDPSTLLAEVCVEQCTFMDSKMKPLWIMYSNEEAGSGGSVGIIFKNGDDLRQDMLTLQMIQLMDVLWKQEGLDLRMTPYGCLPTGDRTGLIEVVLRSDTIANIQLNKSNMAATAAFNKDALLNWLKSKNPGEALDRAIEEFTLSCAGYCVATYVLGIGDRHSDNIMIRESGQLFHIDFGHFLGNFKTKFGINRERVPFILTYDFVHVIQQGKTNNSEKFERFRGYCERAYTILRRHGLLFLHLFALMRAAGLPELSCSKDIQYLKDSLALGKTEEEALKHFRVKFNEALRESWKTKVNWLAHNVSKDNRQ
Assay: PI3K (p110δ/p85α) (h) non-radioactive HTRF kinase assay
measured_property: IC50 (nM)
The reply should contain only the number, in nM.

Answered cases to consult:
molecule: CC(C)c1nc(-c2c(N)ncnc2N[C@@H](C)c2nc3cccc(Cl)c3c(=O)n2C2CC2)no1 [Ex. 59]
IC50 (nM): 20
//
molecule: Cc1noc(-c2c(N)ncnc2N[C@@H](C)c2nc3cccc(F)c3c(=O)n2-c2ccccc2)n1 [Ex. 63]
IC50 (nM): 18
//
molecule: Cc1nnc(-c2c(N)ncnc2N[C@@H](C)c2nc3cccc(Cl)c3c(=O)n2-c2ccccc2)o1 [Ex. 64]
IC50 (nM): 8
//
molecule: CC[C@H](Nc1ncnc(N)c1-c1ncn(C)n1)c1nc2cccc(Cl)c2c(=O)n1-c1ccccc1 [Ex. 32]
IC50 (nM): 70
//
molecule: C[C@H](Nc1ncnc(N)c1-c1ncn(C)n1)c1nc2cccc(Cl)c2c(=O)n1C1CC1 [Ex. 44]
IC50 (nM): 358
//
molecule: CC[C@H](Nc1ncnc(N)c1-c1nnc(C)o1)c1nc2cccc(F)c2c(=O)n1C1CC1 [Ex. 25]
IC50 (nM): 298
//
molecule: CC[C@H](Nc1ncnc(N)c1C1=N[C@@H](C)CO1)c1nc2cccc(Cl)c2c(=O)n1-c1ccccc1 [Ex. 6]
IC50 (nM): 99

Now look at this entry.
// sample CC(C)c1noc(-c2c(N)ncnc2N[C@@H](C)c2nc3cccc(Cl)c3c(=O)n2C2CC2)n1 [Ex. 57] , its IC50 was 6

* * *

Test: Pharmacokinetics after intravenous and oral administration in rats
Assay type: in vivo, rat
Conditions: rat, plasma, iv dosing, dose 1 mg/kg, read-out: Vss
measured_property: Vd
Just so you know, I need the unit written after the number.

compound_string: CC[C@H](Nc1ncnc(N)c1-c1nc(C)no1)c1nc2cccc(F)c2c(=O)n1C1CC1
measured_property: Vd
measurement: 5.02 L/kg

compound_string: CC[C@H](Nc1ncnc(N)c1-c1ncn(C)n1)c1nc2cccc(Cl)c2c(=O)n1-c1ccccc1F
measured_property: Vd
measurement: 4.61 L/kg

compound_string: CC[C@H](Nc1ncnc(N)c1-c1ccon1)c1nc2cccc(F)c2c(=O)n1C1CC1
measured_property: Vd
measurement: 2.42 L/kg

compound_string: CCc1noc(-c2c(N)ncnc2N[C@@H](CC)c2nc3cccc(Cl)c3c(=O)n2C2CC2)n1
measured_property: Vd
measurement: 8.12 L/kg

compound_string: CC[C@H](Nc1ncnc(N)c1-c1ncc(C)o1)c1nc2cccc(C)c2c(=O)n1-c1ccccc1C
measured_property: Vd
measurement: 8.92 L/kg

compound_string: CC[C@H](Nc1ncnc(N)c1-c1ccon1)c1nc2cccc(Cl)c2c(=O)n1C1CC1
measured_property: Vd
measurement: 2.18 L/kg

compound_string: CC[C@H](Nc1ncnc(N)c1-c1nc(C)no1)c1nc2cccc(C)c2c(=O)n1-c1ccccc1C
measured_property: Vd
measurement: 6.11 L/kg

Pending molecule:
// recorded Vd for CC[C@H](Nc1ncnc(N)c1-c1nc(C)no1)c1nc2cccc(C)c2c(=O)n1-c1ccccc1 : 4.9 L/kg
